- target-entity: Delta-5-Desaturase (D5D), membrane preparations of D5D-overexpressing HEK293 6E cells (Homo sapiens, UniProt O60427)
- Sequence (O60427 whole entry, species assumed): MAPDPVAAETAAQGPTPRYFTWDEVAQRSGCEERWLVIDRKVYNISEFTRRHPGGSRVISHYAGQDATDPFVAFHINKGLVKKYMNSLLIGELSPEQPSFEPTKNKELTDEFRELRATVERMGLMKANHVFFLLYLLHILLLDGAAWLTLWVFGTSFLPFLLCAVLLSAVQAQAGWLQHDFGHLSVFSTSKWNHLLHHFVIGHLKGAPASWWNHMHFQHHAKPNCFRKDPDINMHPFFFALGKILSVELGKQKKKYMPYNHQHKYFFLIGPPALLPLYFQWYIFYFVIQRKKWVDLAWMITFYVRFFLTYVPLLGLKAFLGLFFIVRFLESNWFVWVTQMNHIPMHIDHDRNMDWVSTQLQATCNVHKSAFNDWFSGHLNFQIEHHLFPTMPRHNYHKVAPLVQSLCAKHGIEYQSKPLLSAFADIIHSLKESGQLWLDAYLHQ
- assay-notes: In vitro measurement of Delta-5-Desaturase inhibitory activity using DGLA-CoA and Arachidonyl-CoA mass spectrometric assays
- measurement-setup: D5D membrane 10 μg/mL, one-hour incubation, average of at least two independent runs
value-kind: pIC50
Answers are plain numbers, as −log10 of the molar value.

Known results for compounds:
compound="Cc1cn2c(=O)c(-c3cnn(CC(F)(F)C(F)(F)F)c3)c(C(F)(F)F)nc2n1C(C)C [Example 58]" data_value=7.50
compound="CCOc1nc2sc(C)nn2c(=O)c1-c1cnn(CC(F)(F)C(F)(F)F)c1 [Example 41]" data_value=6.06
compound="O=c1c(-c2cnn(CC(F)(F)C(F)(F)F)c2)c(C(F)(F)F)nc2sc(F)cn12 [Example 7]" data_value=8.89
compound="Cc1cn2c(=O)c(-c3cnn(CCC(F)(F)F)c3)c(C(F)(F)F)nc2n1C [Example 53]" data_value=8.19

Give pIC50 for all compounds that follow.
1. Cc1cn2c(=O)c(-c3cnn(C[C@H]4CC4(F)F)c3)c(C(F)(F)F)nc2[nH]1 (single isomer, unassigned) [Example 107]
2. [2H]C([2H])([2H])n1c(C)cn2c(=O)c(-c3cnn(CCC(F)(F)F)c3)c(C(F)(F)F)nc12 [Example 78]
3. CC(C)N1C(=O)Cn2c1nc(C(F)(F)F)c(-c1cnn(CC(F)(F)C(F)(F)F)c1)c2=O [Example 35]

Response:
[7.90, 7.55, 6.93]

---

- target-entity: Delta-5-Desaturase (D5D), membrane preparations of D5D-overexpressing HEK293 6E cells (Homo sapiens)
- assay-notes: In vitro measurement of Delta-5-Desaturase inhibitory activity using DGLA-CoA and Arachidonyl-CoA mass spectrometric assays
- measurement-setup: D5D membrane 10 μg/mL, one-hour incubation, average of at least two independent runs
Answer each item with its documented pIC50.
Give bare numbers, as −log10 of the molar value.

Examples with their reported pIC50 follow.
molecule="Cc1cn2c(=O)c(-c3cnn(CC(F)(F)C(F)(F)F)c3)c(C(F)(F)F)nc2n1C [Example 52]" data_value=7.32
molecule="C[C@@H]1Cn2c(nc(C(F)(F)F)c(-c3cnn(CC(F)(F)C(F)(F)F)c3)c2=O)S1 (single isomer, unassigned) [Example 114]" data_value=7.31
molecule="Cc1nn2c(=O)c(-c3cnn(CC4CC4(F)F)c3)c(C(F)(F)F)nc2s1 (centres unmarked) [Example 23]" data_value=6.80
molecule="Cn1c(Cl)cn2c(=O)c(-c3cnn(CCC(F)(F)F)c3)c(C(F)(F)F)nc12 [Example 51]" data_value=7.43
molecule="Cn1nnn2c(=O)c(-c3cnn(CC(F)(F)C(F)(F)F)c3)c(C(F)(F)F)nc12 [Example 28]" data_value=8.22

Report pIC50 for every entry below.
1. Cc1cn2c(=O)c(-c3cnn(CCC(F)(F)F)c3)c(C(F)(F)F)nc2n1-c1ccccn1 [Example 94]
2. O=c1c(-c2cnn(CC(F)(F)C(F)(F)F)c2)c(C(F)(F)F)nc2sc(CO)cn12 [Example 32]
3. CCn1c(C)cn2c(=O)c(-c3cnn(CC(F)(F)C(F)(F)F)c3)c(C(F)(F)F)nc12 [Example 56]

Response:
6.11
7.34
7.46
